Test system: MOLT-4 leukemia
Experiment: NCI-60 one-dose screen, 48 h
Settings: 10 µM unless noted
About 83,000 compounds went through this panel and 20% of them were active in at least one assay; those are over-represented in the sample as a whole. The source made the active and inactive calls. Rule for the calls: active = growth percent below 10; inactive = the rest.
Possible outcomes: active, inactive

{"compound": "O=C(NNc1nc2cc(F)cc(F)c2n2cccc12)c1ccncn1", "assigned category": "active"}
{"compound": "Cn1cc2c(c1)-c1c(sc3nc(-c4ccc(NC(=O)Nc5cc(C(C)(C)C)on5)cc4)cn13)CC2", "assigned category": "inactive"}
{"compound": "COc1ccc(/C=N/Nc2nc(Nc3ccccc3)nc(Nc3ccc(S(N)(=O)=O)cc3)n2)cc1", "assigned category": "inactive"}
{"compound": "COc1ccc(Cn2cc3c(c2-c2cc(OC)c(OC)c(OC)c2)CCCc2cnoc2-3)cc1", "assigned category": "active"}
{"compound": "CCCC(=O)NC(c1cccnc1)c1cc(Cl)c2cccnc2c1O (centres undefined)", "assigned category": "inactive"}
{"compound": "Cc1ccc(Cc2cnc(NC(=O)/C(C#N)=C/c3ccc(-c4ccc(Cl)cc4)o3)s2)cc1", "assigned category": "inactive"}
{"compound": "CCCCCc1ccc(S(=O)(=O)N(C(C)=O)c2cccc(-c3csc(N(CCN4CCN(C)CC4)C(C)=O)n3)c2)cc1", "assigned category": "active"}
{"compound": "C/C(=C(/c1ccc(O)cc1)c1ccc(OCCN(C)C)cc1)c1ccc(Cl)cc1", "assigned category": "inactive"}
{"compound": "COc1ccc(Oc2ccc(C3CC(c4cc(OC)c(OC)c(OC)c4)=NN3C(C)=O)cc2)cc1 (centres undefined)", "assigned category": "inactive"}

====

System: OVCAR-4 ovarian
Test: NCI-60 one-dose screen, 48 h (100 = growth as untreated, 0 = no growth, -100 = all killed)
Details: 10 µM unless noted
Compounds without any hit were thinned out: in the full panel of roughly 83,000, 20% have a hit.
So basically: growth at 70% or higher? That is Yes. Lower than 70%? That is No.

{"compound": "CCOC(=O)C1=C(C)Nc2nnc(Nc3ccccc3)n2C1c1ccccc1 (centres undefined)", "experimental system": "OVCAR-4 ovarian", "assigned category": "No"}
{"compound": "N#Cc1c(-c2ccccc2)cc(-c2c[nH]c3ccccc23)nc1-c1c[nH]c2ccccc12", "experimental system": "OVCAR-4 ovarian", "assigned category": "Yes"}
{"compound": "CN1CCN(c2ccc(NC(=O)Nc3ccc4c(ccn4-c4cccc(C(N)=O)n4)c3)cc2C(F)(F)F)CC1", "experimental system": "OVCAR-4 ovarian", "assigned category": "Yes"}
{"compound": "CNC(=O)c1c(NC(=O)c2ccc(F)cc2F)sc2c1CCC(=O)C2", "experimental system": "OVCAR-4 ovarian", "assigned category": "No"}
{"compound": "CN1CCN(c2nc(-c3csc(-c4ccncc4)n3)cc3ccccc23)CC1", "experimental system": "OVCAR-4 ovarian", "assigned category": "Yes"}
{"compound": "CCN(CC)CCN1C(=O)c2c(c3c4cc(Br)ccc4[nH]c3c3ccc4ccccc4c23)C1=O", "experimental system": "OVCAR-4 ovarian", "assigned category": "No"}
{"compound": "Cc1cc(-c2ccc3nc(N)sc3c2)nc2ccc3[nH]ncc3c12", "experimental system": "OVCAR-4 ovarian", "assigned category": "No"}
{"compound": "O=C1C[C@@H](c2ccccc2)Oc2c(Cc3ccccc3O)c(O)c(Cc3cc(Cc4cc(Cc5ccccc5O)ccc4O)ccc3O)c(O)c21", "experimental system": "OVCAR-4 ovarian", "assigned category": "Yes"}
{"compound": "COc1cc(O)c2c(c1)[C@H]1O[C@@H]1C[C@H](O)[C@H](O)C(=O)/C=C\\C[C@H](C)OC2=O", "experimental system": "OVCAR-4 ovarian", "assigned category": "No"}
{"compound": "O=C(COc1cccc2cccnc12)Nc1ccc(C(=O)/C=C/c2ccc(Cl)cc2)cc1", "experimental system": "OVCAR-4 ovarian", "assigned category": "Yes"}
{"compound": "Cc1ccc(-c2cc(-c3ccc(N(C)C)cc3)n3c(n2)nc2ccccc23)cc1", "experimental system": "OVCAR-4 ovarian", "assigned category": "No"}
{"compound": "NC(=S)N/N=C(/C=C/c1cn(-c2ccccc2)nc1-c1ccc(Cl)cc1)c1cc2ccccc2oc1=O", "experimental system": "OVCAR-4 ovarian", "assigned category": "No"}
{"compound": "COc1cc(C2CC(c3ccc(Nc4nc(NCCO)nc(Nc5ccc(Cl)cc5)n4)cc3)=Nc3c(N)nc(N)nc3N2)cc(OC)c1OC (centres undefined)", "experimental system": "OVCAR-4 ovarian", "assigned category": "No"}
{"compound": "COc1ccc([C@H]2c3[nH]c4ccccc4c3C[C@@H]3C(=O)N(C4CCN(Cc5ccccc5)CC4)CC(=O)N23)c(OC)c1", "experimental system": "OVCAR-4 ovarian", "assigned category": "Yes"}
{"compound": "CSc1nccc(-c2c(-c3ccc(F)c(OCc4ccc(F)cc4)c3)nc3sccn23)n1", "experimental system": "OVCAR-4 ovarian", "assigned category": "No"}
{"compound": "COc1ccc(-c2ccnc3c(C#N)c(Nc4ccccc4)nn23)cc1OC", "experimental system": "OVCAR-4 ovarian", "assigned category": "Yes"}
{"compound": "NC(=O)N1N=C(c2cc3ccccc3oc2=O)CC1c1cn(-c2ccccc2)nc1-c1ccc(Cl)cc1 (centres undefined)", "experimental system": "OVCAR-4 ovarian", "assigned category": "No"}
{"compound": "CCCC(=O)NC(c1cccnc1)c1ccc2c(C)ccnc2c1O (centres undefined)", "experimental system": "OVCAR-4 ovarian", "assigned category": "No"}
{"compound": "COc1ccc(C(=O)c2c(N)c(C#N)cn2-c2cccc(OC)c2)cc1", "experimental system": "OVCAR-4 ovarian", "assigned category": "No"}
